# measurement.notes: qHTS assay to identify small molecule agonists of the estrogen receptor alpha (ER-alpha) signaling pathway in the presence of an antagonist - cell viability counter screen (AID 1259386);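 also: cells exposed to compounds for 22 h at 37 °C before the viability read; nearly all actives have a fitted effect of over 30% in size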
# stated.conditions: VM7Luc4E2 viability, CellTiter-Fluor fluorescence, 22 h; series mostly up to 92.4 µM
# Description: National Center for Advancing Translational Sciences [NCATS] NIH Chemical Genomics Center [NCGC] U.S. Environmental Protection Agency [EPA] National Institutes of Environmental Health Sciences [NIEHS] National Toxicology Program [NTP] U.S. Food and Drug Administration [FDA] Estrogen receptor (ER), a member of nuclear hormone receptor plays an important role in development, metabolic homeostasis and reproduction. […]
Records with an inconclusive call do not appear. Activity calls are given as the source filed them. Calls follow the shape of the dose curve; as a rule, active = well fitted cell-killing curve with a large enough effect in the repeat runs; inconclusive = weak or mixed curves, or effect the other way; inactive = no such curve, though single readings can be large or run the other way.
Your response should consist of one outcome taken from active, inactive

State the result this test recorded for `Brc1cc(Br)cc(Br)c1` .
inactive

State the result this test recorded for `CCc1c(C)cc(N)c(CC)c1N` .
inactive

State the result this test recorded for `Cc1ccc(C=O)cc1` .
inactive

State the result this test recorded for `CC(C)(c1ccc(Oc2ccc(N)cc2)cc1)c1ccc(Oc2ccc(N)cc2)cc1` .
active

State the result this test recorded for `CC(C)C(=O)C(C)C` .
inactive

State the result this test recorded for `Cc1cccc(C)c1C` .
inactive

State the result this test recorded for CCCCCCCCCCCCCCCCC(C(=O)O)C(O)(CC(=O)O)C(=O)O (configuration not stated) .
inactive

State the result this test recorded for `CCCCCCCCCCCCN1CCCC1=O` .
inactive

State the result this test recorded for CCC1(C)C(=O)N(Cl)C(=O)N1Cl (configuration not stated) .
inactive

State the result this test recorded for `c1ccc2cc3c4ccccc4c4ccccc4c3cc2c1` .
inactive

State the result this test recorded for `CCN(CCC#N)c1ccc(N=Nc2ccc([N+](=O)[O-])cc2)cc1` .
inactive

State the result this test recorded for `c1ccc(C[P+](c2ccccc2)(c2ccccc2)c2ccccc2)cc1` .
active

State the result this test recorded for `COc1cc([C@@H]2c3cc4c(cc3[C@@H](O[C@@H]3O[C@@H]5CO[C@@H](C)O[C@H]5[C@H](O)[C@H]3O)[C@H]3COC(=O)[C@H]23)OCO4)cc(OC)c1O` .
inactive

State the result this test recorded for `CCN(CC)c1ccc(N=Nc2ccccc2)cc1` .
active

State the result this test recorded for `CCCCCCCCOC(=O)c1cc(O)c(O)c(O)c1` .
active

State the result this test recorded for `C1=CCCC1` .
inactive

State the result this test recorded for `Oc1ccc2c(c1)CCC2` .
inactive

State the result this test recorded for `Nc1ccc(F)c([N+](=O)[O-])c1` .
inactive

State the result this test recorded for `CCOC(=O)[C@H](O)[C@@H](O)C(=O)OCC` .
inactive

State the result this test recorded for `C/C(=C\c1ccc(C(=O)O)cc1)c1ccc2c(c1)C(C)(C)CCC2(C)C` .
inactive

State the result this test recorded for `CCc1cccc(CC)c1` .
inactive

State the result this test recorded for `CC1=CC[C@@H](C(C)(C)O)CC1` .
inactive

State the result this test recorded for `C=CC(=O)O[C@H]1C[C@@H]2CC[C@@]1(C)C2(C)C` .
inactive

State the result this test recorded for `CN1CCN(CCCN2c3ccccc3Sc3ccc(Cl)cc32)CC1` .
inactive

State the result this test recorded for `COc1cc(/C=C/C(=O)CC(=O)/C=C/c2ccc(O)c(OC)c2)ccc1O` .
active

State the result this test recorded for `CCCCC/C=C\C=C\C(=O)OCC` .
inactive

State the result this test recorded for `CC/C=C(\C)C=O` .
inactive
